- Read-out: X-box binding protein 1 (XBP1), XBP1 (gene 7494)
- procedureText: LTEA_HepaRG_XBP1: Life Technologies and Expression Analysis (LTEA) Assay for X-box binding protein 1 (XBP1) using HepaRG (AID 2283540)
- measurementSetup: mRNA level, 48 h; actives raise or lower the signal
Active and inactive are the calls of the source. The calls were made as follows: active = hit-call score of the fitted dose curve at least 0.9, where 1 is the maximum; inactive = score below 0.9.
measuredProperty: AC50

Worked cases, AC50 given:
compound: NC(N)=O
measuredValue: inactive

compound: COc1cc(C(C)C)c2c(c1)S(=O)(=O)N(COc1cc(=O)n3cccc(OCCN4CCCCC4)c3n1)C2=O
measuredValue: inactive

compound: O=C(NO)C1(NS(=O)(=O)c2ccc(Oc3ccc(F)cc3)cc2)CCOCC1
measuredValue: inactive

compound: CNC(C)=O
measuredValue: inactive

compound: CCCCCCCCCC
measuredValue: inactive

Request the reported AC50 associated with CCn1nc(C)c2c1C(=O)NCC(c1ccc(O)cc1)=N2
inactive
